- System: NCI/ADR-RES
- TEST: NCI-60 cell line panel: NCI/ADR-RES
- Assay type: cell-based
- Design: unit not given here
- ASSAY_CONTEXT: Ovarian Cancer, total growth inhibition
# TGI per record follows
Just the number.

INSERT INTO assay_data (molecule, obs_value) VALUES
  ('CCN1CCN(c2ccc(NC(=O)Nc3ccc(-c4cc(C(=O)NC(C)C)c5ncccc5n4)cc3)cc2C(F)(F)F)CC1 [Compound 13f]', 10.00);

Fill in: TGI of CNC(=O)c1cc(-c2ccc(NC(=O)Nc3ccc(N4CCN(C)CC4)c(C(F)(F)F)c3)cc2)nc2cccnc12 [Compound 13b] is ___
45.4

---

- Tested on: NCI/ADR-RES
- TEST: NCI-60 cell line panel: NCI/ADR-RES
- Format: cell-based
- Design: unit not given here
- ASSAY_CONTEXT: Ovarian Cancer, total growth inhibition
- Description: It was carried out at the NCI, Bethesda, MD, USA, utilizing their standard protocol.
OBSERVED_PROPERTY: TGI
Reply: number alone, nothing else.

Below, each entry is followed by its recorded TGI result.
INSERT INTO results (compound, study_system, obs_value) VALUES
  ('CC(C)NC(=O)c1cc(-c2ccc(NC(=O)Nc3ccc(N4CCN(C)CC4)c(C(F)(F)F)c3)cc2)nc2cccnc12 [Compound 13e]', 'NCI/ADR-RES', 3.71),
  ('CNC(=O)c1cc(Oc2ccc(NC(=O)Nc3ccc(Cl)c(C(F)(F)F)c3)cc2)ccn1 [Sorafenib, reference compound]', 'NCI/ADR-RES', 7.94);

Please find the next compound below.
Data request, read-out TGI, for CCN1CCN(c2ccc(NC(=O)Nc3ccc(-c4cc(C(=O)NC)c5ncccc5n4)cc3)cc2C(F)(F)F)CC1 [Compound 13c]
8.09

src = patent US20240308996A1
